The entries below are paired with their reported EC50.
# test-target: extracellular domain of human CD137 on the surface of CHO-K1 cells (human, UniProt Q07011 24-186)
# experiment-notes: flow cytometry on CHO-K1 cells with human CD137 ECD
Note: unit nM is implicit; provide only the numeric part.

ISOP193AR9P1B4 (designed binder, not shown: small tags and cut ends) LPAPKNLVVSRVTEDSARLSWRDLQYHTFDSFLIQYQESEKVGEAIVLTVPGSERSYDLTGLKPGTEYTVSIYGVGRHYTVYDSNPLSAIFTT | 13.9

# binder ISOP193HR9P1C8 (designed binder, not shown: small tags and cut ends) LPAPKNLVVSRVTEDSARLSWTAPDAAFDSFEIYYFELRLGGEAIVLTVPGSERSYDLTGLKPGTEYLVTIYGVKGGGYSTPLSAIFTT ; its EC50 = 3.27

# binder ISOP193ER9P1G11 (designed binder, not shown: small tags and cut ends) LPAPKNLVVSRVTEDSARLSWTAPDAAFDSFDIYYFEHPVGGEAIVLTVPGSERSYDLTGLKPGTEYLVTIYGVKGGYLSMPLSAIFTT ; its EC50 = 18.7

# binder ISOP193ER9P1C10 (designed binder, not shown: small tags and cut ends) LLAPKNLVVSRVTEDSARLSWIAPDAAFDSFEIYYKELRAEGEAIVLTVPGSERSYDLTGLKPGTEYLVTIYGVKGGSVSIPLSAIFTT ; its EC50 = 31
